Taken from patent US10597388B2.

System: oat, wild (wild oat, Avena fatua)
Assay: Test D controlled growth environment herbicide test, pre- and postemergence
Type: in vivo
Conditions: Postemergence, 31 g ai/ha; scale 0 to 100 (0 no effect, 100 complete control)
Description: […]
This listing pairs compounds with measured Oat, Wild plant response rating.
Enter a number only.

Below: 2 compounds and their reported Oat, Wild plant response rating.
chemicalSmiles: CCC(=O)Oc1c(C)nn(C)c(=O)c1-c1c(C)sc2c(C)cc(C)cc12
Oat, Wild plant response rating: 75

chemicalSmiles: CC(=O)Oc1c(Br)nn(C)c(=O)c1-c1c(C)ccc2ccccc12
Oat, Wild plant response rating: 90

Fill in: oat, wild (wild oat, Avena fatua) Oat, Wild plant response rating for COc1nn(C)c(=O)c(-c2c(C)ccc3ccccc23)c1O = 75

Fill in: oat, wild (wild oat, Avena fatua) Oat, Wild plant response rating for CCOC(=O)Oc1c(C)nn(C)c(=O)c1-c1c(C)sc2ccc(C)cc12 = 90

Fill in: oat, wild (wild oat, Avena fatua) Oat, Wild plant response rating for Cc1ccc2sc(C)c(-c3c(O)c(C)nn(C)c3=O)c2c1 = 40

Fill in: oat, wild (wild oat, Avena fatua) Oat, Wild plant response rating for Cc1ccc2ccccc2c1-c1c(O)c(C)nn(C)c1=O = 80
